system: KYSE520; assay: CellTiter-Glo cell proliferation inhibition, KYSE520; type: cell-based, human; conditions: Homo sapiens, KYSE-520; KYSE520 cells, 120 hours, CellTiter-Glo
Readout label: IC50
Answers without a unit are incomplete; give the number and then its unit.

The recorded IC50 for entry CC1(n2c(-c3ccc(NC(=O)C(=O)Nc4ccc(N5CCC6(CC5)CC(CO)C6)cc4)cc3)cc3cc(F)c(-c4nnn[nH]4)cc32)CCC1 [Example 97] equals 0.095 µM

Lab book: IC50 of CC1(n2c(-c3ccc(NC(=O)C(=O)Nc4ccc(N5CC6(CCOCC6)C5)cc4)cc3)cc3cc(F)c(-c4nnn[nH]4)cc32)CCC1 [Example 58] noted as 0.125 µM

Item: O=C(Nc1ccc(-c2cc3cc(F)c(-c4nnn[nH]4)cc3n2C2CCC2)cc1)C(=O)Nc1ccc(N2CCC3(CCC(O)C3)CC2)cc1 (stereo not drawn) [Example 100] | IC50: 0.057 µM

IC50 measured on CC1(n2c(-c3ccc(NC(=O)C(=O)Nc4ccc(N5CCC6(CCC(O)C6)CC5)cc4)cc3)cc3cc(F)c(-c4nnn[nH]4)cc32)CCC1 (stereo not drawn) [Example 101] = 0.128 µM

Record O=C(Nc1ccc(-c2ccsc2)cc1)C(=O)Nc1ccc(-c2sc3cc(F)c(-c4nnn[nH]4)cc3c2C2CCC2)cc1 [Example 133] . Reported IC50: 0.688 µM

The measured IC50 associated with CC1(n2c(-c3ccc(NC(=O)C(=O)Nc4ccc(-c5cnn(C6COC6)c5)cc4)cc3)cc3cc(F)c(-c4nnn[nH]4)cc32)CC1 [Example 6] reads 0.065 µM

Per the records, this molecule ( CC1(O)CCC2(CCN(c3ccc(NC(=O)C(=O)Nc4ccc(-c5cc6cc(F)c(-c7nnn[nH]7)cc6n5C5CCC5)cc4)cc3)CC2)C1 (stereo not drawn) [Example 104] ) has IC50 equal to 0.125 µM

Reported IC50 ( CC1(n2c(-c3ccc(NC(=O)C(=O)Nc4ccc(N5CCC6(CCC(O)C6)CC5)cc4)cc3)cc3cc(F)c(-c4nnn[nH]4)cc32)CC1 (stereo not drawn) [Example 102] ) = 0.116 µM

Reported IC50 ( N#CCc1cc(-c2ccc(NC(=O)C(=O)Nc3ccc(-c4cc5cc(F)c(-c6nnn[nH]6)cc5n4C4CCC4)cc3)cc2)cs1 [Example 2] ) = 0.141 µM

// sample CC1(O)CC2CN(c3ccc(NC(=O)C(=O)Nc4ccc(-c5cc6cc(F)c(-c7nnn[nH]7)cc6n5C5CCC5)cc4)cc3)CC2C1 (stereo not drawn) [Example 117] , its IC50 was 0.104 µM

Short answer for CC(C)(O)C1CCN(c2ccc(NC(=O)C(=O)Nc3ccc(-c4cc5cc(F)c(-c6nnn[nH]6)cc5n4C4CCC4)cc3)cc2)CC1 [Example 33] : IC50 was 0.042 µM

The reported value for CC1(n2c(-c3ccc(NC(=O)C(=O)Nc4ccc(N5CC6COCC6C5)cc4)cc3)cc3cc(F)c(-c4nnn[nH]4)cc32)CCC1 (stereo not drawn) [Example 115] in terms of IC50 is 0.11 µM
